# assay-overview: Half-life period in PBS buffer at 37 degree C in the absence of human serum albumin
# Format: ADME
recorded-endpoint: half-life (min)
Give bare numbers, in min.

The reported half-life of the molecule `CC[C@@]1(O)C(=O)OCc2c1cc1n(c2=O)Cc2cc3ccccc3nc2-1` was 16.9

* * *

# assay-overview: Half-life period in human plasma
# Type: ADME
Could you please report measured half-life for the items listed next?
Numbers only, in min.

Example entries begin here.
Note to self: half-life recorded for CC[C@@]1(O)C(=O)OCc2c1cc1n(c2=O)Cc2cc3cc(O)ccc3nc2-1 [HYDROXYCAMPTOTHECIN] was 18.6

get_value(item= CCc1c2c(nc3ccc(O)cc13)-c1cc3c(c(=O)n1C2)COC(=O)[C@]3(O)CC [7-ETHYL-10-HYDROXYCAMPTOTHECIN] , readout=half-life) returns 34.3

Next:
GET /value?item= `CC[C@@]1(O)C(=O)OCc2c1cc1n(c2=O)Cc2cc3ccccc3nc2-1` &field=half-life returns 10.6

* * *

# assay-overview: Half-life period in HSA buffer at 37 C in the presence of human serum albumin
# Type: ADME
# condition-info: buffer with human serum albumin
recorded-endpoint: half-life
The number alone won't do; follow it with the unit.

Form: compound = CC[C@@]1(O)C(=O)OCc2c1cc1n(c2=O)Cc2cc3cc(O)ccc3nc2-1 [HYDROXYCAMPTOTHECIN] ; half-life = 21.1 min
